Origin of values: paper PMC6814738

Answer each item with its documented Ca2+ response, mean.
Target: mouse Fpr3 (Fpr-rs1) (Mus musculus)
Construct: expressed in transfected cells; host or cells: HEK293T (DSMZ # ACC-635), transient transfection with jetPEI
Sequence (O08790 whole entry): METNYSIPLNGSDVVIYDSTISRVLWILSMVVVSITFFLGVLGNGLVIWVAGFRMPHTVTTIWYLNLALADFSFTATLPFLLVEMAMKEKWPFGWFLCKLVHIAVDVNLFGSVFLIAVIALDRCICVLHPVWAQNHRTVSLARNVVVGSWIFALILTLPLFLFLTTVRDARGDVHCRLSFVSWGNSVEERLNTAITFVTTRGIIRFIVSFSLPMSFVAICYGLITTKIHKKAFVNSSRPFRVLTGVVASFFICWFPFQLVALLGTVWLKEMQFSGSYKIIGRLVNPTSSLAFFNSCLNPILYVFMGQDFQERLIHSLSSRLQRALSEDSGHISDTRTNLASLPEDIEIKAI
Assay: Heterologous expression / high-throughput Ca2+ imaging agonist screen and sequence selectivity of Fpr3 (Fig. 1a, 2c-e, 2g, 2i)
Format: cell-based
Conditions: 3 µM; mean of n = 3 experiments in triplicate (n = 5 for f-MKKFRW); Fpr3 + Gα16 HEK293T, Fluo-4/AM, FLIPR, buffer C1 pH 7.2; mock 0.059-0.060

>>> df
                                  substance        assay_readout      result
0  f-MKNFKG [synthesized fMet peptide, bacterial signal peptide fragment]  Ca2+ response, mean  0.065 ∆F/F
1       f-MKTSIR [synthesized fMet peptide]  Ca2+ response, mean  0.055 ∆F/F
2       f-MKKNLV [synthesized fMet peptide]  Ca2+ response, mean  0.052 ∆F/F
3       f-MMKMEG [synthesized fMet peptide]  Ca2+ response, mean  0.048 ∆F/F
4  f-MNKKLL [f-MNKLL, synthesized fMet peptide]  Ca2+ response, mean  0.038 ∆F/F

Each substance below has a recorded value; state its Ca2+ response, mean.
1. f-MTNMRK [synthesized fMet peptide]
2. f-MEQQNK [synthesized fMet peptide]
3. f-MVPISI [synthesized fMet peptide]
4. f-MTNKIS [synthesized fMet peptide]
5. f-MEFVAKLFK [synthesized fMet peptide]
6. f-MKKIML [synthesized fMet peptide]
7. f-MKKWRW [synthesized fMet peptide]
8. f-MTHQTH [synthesized fMet peptide]

Reply:
0.089 ∆F/F
0.047 ∆F/F
0.048 ∆F/F
0.052 ∆F/F
0.071 ∆F/F
0.050 ∆F/F
0.056 ∆F/F
0.064 ∆F/F
